Tested system: WRN helicase (His-WRN527-072) (Homo sapiens, UniProt Q14191)
Sequence (Q14191 527-1072 limits assumed): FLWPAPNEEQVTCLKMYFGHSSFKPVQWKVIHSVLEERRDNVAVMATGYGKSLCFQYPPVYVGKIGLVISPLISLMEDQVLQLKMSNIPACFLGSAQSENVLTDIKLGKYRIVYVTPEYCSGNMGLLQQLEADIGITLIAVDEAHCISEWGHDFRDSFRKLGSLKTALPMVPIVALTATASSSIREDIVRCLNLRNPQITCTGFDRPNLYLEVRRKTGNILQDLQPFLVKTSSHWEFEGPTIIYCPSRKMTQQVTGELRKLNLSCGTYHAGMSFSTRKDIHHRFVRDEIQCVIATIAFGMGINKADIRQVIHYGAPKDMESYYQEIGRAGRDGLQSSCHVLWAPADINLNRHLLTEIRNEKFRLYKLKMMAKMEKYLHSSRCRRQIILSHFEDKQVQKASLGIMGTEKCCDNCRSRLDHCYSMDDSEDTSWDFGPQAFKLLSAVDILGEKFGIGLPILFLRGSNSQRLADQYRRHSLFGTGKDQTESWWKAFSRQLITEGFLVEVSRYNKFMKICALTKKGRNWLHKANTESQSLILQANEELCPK
pIC50: −log10 of the molar value.
Decision: pIC50 compared against 8; not below it gives 1.0, below it gives 0.0.

Please review the entries below; each comes with its answer.
INSERT INTO assay_data (structure_as_smiles, answer_label) VALUES
  ('CCc1c(N2CCN(C(=O)c3ncccc3O)CC2)c(=O)n2nc(C3=CCOCC3)nc2n1CC(=O)Nc1ccc(Cl)c(C(F)(F)F)c1', 1.0),
  ('CCc1c(N2CC3CCC(C2)N3C(=O)c2ncccc2O)c(=O)n2nc(C3=CCOCC3)nc2n1CC(=O)Nc1ccc(OC(F)(F)F)cc1', 1.0);

In the following, a different compound is considered.
Q. Quick check, pIC50 >= 8? CCc1c(N2CCN(Cc3cccn(C)c3=O)C(=O)C2)c(=O)n2nc(C3=CCOCC3)nc2n1CC(=O)Nc1ccc(C(F)(F)F)cc1C
A. 0.0
